measured_on: human orexin-2 receptor (Homo sapiens, UniProt O43614)
Sequence (O43614 1-444): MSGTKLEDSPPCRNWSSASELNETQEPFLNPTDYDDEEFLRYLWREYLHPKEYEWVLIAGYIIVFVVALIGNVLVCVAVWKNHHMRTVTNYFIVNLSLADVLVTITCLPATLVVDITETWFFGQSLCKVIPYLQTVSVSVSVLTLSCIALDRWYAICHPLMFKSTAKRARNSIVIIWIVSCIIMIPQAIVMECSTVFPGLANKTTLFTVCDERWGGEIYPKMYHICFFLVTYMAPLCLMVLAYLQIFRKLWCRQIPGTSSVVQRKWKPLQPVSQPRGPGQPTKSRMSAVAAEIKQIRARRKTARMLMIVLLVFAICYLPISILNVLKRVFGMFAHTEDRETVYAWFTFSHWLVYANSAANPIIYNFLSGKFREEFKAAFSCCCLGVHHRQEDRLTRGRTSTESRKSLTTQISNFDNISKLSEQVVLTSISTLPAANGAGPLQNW
method_summary: Intracellular calcium measurements (FLIPR), orexin receptor antagonistic activity, OX2
condition_notes: CHO cells expressing the human orexin-2 receptor; 10 nM orexin-A as agonist
pIC50: −log10 of the molar value.
measured_metric: pIC50

> print(dat)
                                   compound                               measured.on  meas.value
1  COc1cccc(-c2sc(C)nc2C(=O)N2CSC[C@H]2CNC(=O)c2cccc3occc23)c1  human orexin-2 receptor (Homo sapiens, UniProt O43614)        9.00

[P] Cc1cccc(-c2sc(C)nc2C(=O)N2CSC[C@H]2CNC(=O)c2ccc(C(F)(F)F)c3occc23)c1
[Q] Cc1cccc(-c2sc(C)nc2C(=O)N2CSC[C@H]2CNC(=O)c2ccc(F)c3occc23)c1
[R] Cc1nc(C(=O)N2CSC[C@H]2CNC(=O)c2nn(C)c3ccccc23)c(-c2ccc(F)cc2)s1
[S] Cc1nc(C(=O)N2CSC[C@H]2CNC(=O)c2c(C)nc3sccn23)c(-c2cccc(C(F)(F)F)c2)o1
[T] Cc1nc(C(=O)N2CSC[C@H]2CNC(=O)c2cccc3c2NCCO3)c(-c2ccc(F)cc2)s1
Arrange the 5 compounds by rising pIC50, starting with the smallest. Field: ranking. Enter the labels in the order requested. S, T, R, P, Q
(S: 7.10, T: 7.77, R: 8.10, P: 8.40, Q: 9.00)

[P] Cc1cccc(-c2sc(C)nc2C(=O)N2CSC[C@H]2CNC(=O)c2cccc3ncoc23)c1
[Q] Cn1nc(C(=O)NC[C@@H]2CSCN2C(=O)c2ccccc2-c2ccccc2)c2ccccc21
[R] Cc1cccc(-c2sc(C)nc2C(=O)N2CSC[C@H]2CNC(=O)c2cccc3oc(CO)cc23)c1
Arrange the 3 compounds by rising pIC50, starting with the smallest. Field: ranking. Enter the labels in the order requested. R, Q, P

[a] Cc1nc(C(=O)N2CSC[C@H]2CNC(=O)c2c(C)cn3ccsc23)c(-c2ccc(F)cc2)s1
[b] Cc1ccc(-c2nc(C)sc2C(=O)N2CSC[C@H]2CNC(=O)c2c(C)nc3sccn23)cc1
Between a and b , which one shows the smaller pIC50 number? Lab log: write the label of the selected item as the result. b
(b: 7.96, a: 8.22)
